Data provenance: paper PMC11864945

assay: Stability of the analytes in beagle dog plasma (bench top, refrigerator, freeze–thaw, autosampler, short and long term storage); type: physicochemical; conditions: freeze–thaw after 3rd cycle at −80°C; dog plasma; LQC
Accuracy values for the molecules below.
Quick note: give the figure in %, leave out the unit.

Record excerpt, results attached:
[
  {
    "molecule": "COC(=O)Nc1nc2ccc([S+]([O-])c3ccccc3)cc2[nH]1 (stereo not shown)",
    "display.unit": "%",
    "Accuracy": 100.97
  },
  {
    "molecule": "COC(=O)Nc1nc2ccc(Sc3ccccc3)cc2[nH]1",
    "display.unit": "%",
    "Accuracy": 98.82
  },
  {
    "molecule": "CN1CCCN=C1/C=C/c1cccs1",
    "display.unit": "%",
    "Accuracy": 92.15
  }
]

Consider now this further molecule.
Look up and state reported Accuracy for O=C(C1CCCCC1)N1CC(=O)N2CCc3ccccc3C2C1 (stereo not shown)
98.12
